Examples of binders with documented koff follow.
molecular target: T1, cynomolgus mesothelin (cynomolgus); assay: SPR
T1 construct: also called cynoMSLN; Cyno MSLN
The number alone won't do; follow it with the unit.

binder	koff
HuAM16 (antibody, V domains shown, fully human antibody) VH: EVQLVQSGAEVKKPGASVKVSCKASGDTFNRYYVQWVRQAPGQGLEWMGIINPSGVSTTYAQKFQGRVTMTRDTSTSTVYMELSSLRSEDTAVYYCAETRGSGFNYFGMDVWGQGTLVTVSS VL: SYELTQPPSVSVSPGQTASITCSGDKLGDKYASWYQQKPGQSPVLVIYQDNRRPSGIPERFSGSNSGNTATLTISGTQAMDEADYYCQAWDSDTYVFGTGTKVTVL	0.00019 s⁻¹
HuAM5 (antibody, V domains shown, fully human antibody) VH: EVQLVQSGAEVKKPGASVKVSCKASGDTFNRYYVHWVRQAPGQGLEWMGIINPSGVSTTYAQKFQGRVTMTRDTSTSTVYMELSSLRSEDTAVYYCAEVRGSGYNYFAMDVWGQGTLVTVSS VL: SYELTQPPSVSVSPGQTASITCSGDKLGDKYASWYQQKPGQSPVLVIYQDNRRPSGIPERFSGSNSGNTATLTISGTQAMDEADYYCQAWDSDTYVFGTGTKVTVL	0.0001 s⁻¹
HuAM7 (antibody, V domains shown, fully human antibody) VH: EVQLVQSGAEVKKPGASVKVSCKASGDTFNRYYVHWVRQAPGQGLEWMGIINPSGVSTTYAQKFQGRVTMTRDTSTSTVYMELSSLRSEDTAVYYCAEVRGSGYNYFGMDVWGQGTLVTVSS VL: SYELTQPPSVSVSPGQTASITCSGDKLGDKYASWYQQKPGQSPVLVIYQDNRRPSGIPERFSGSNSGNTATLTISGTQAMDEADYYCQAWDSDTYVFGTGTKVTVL	0.00011 s⁻¹

query: Name the recorded koff for HuAM1 (antibody, V domains shown, fully human antibody) VH: EVQLVQSGAEVKKPGASVKVSCKASGDTFKRYYVQWVRQAPGQGLEWMGIINPSGVSTTYAQKFQGRVTMTRDTSTSTVYMELSSLRSEDTAVYYCAESRGSGYNYFAMDVWGQGTLVTVSS VL: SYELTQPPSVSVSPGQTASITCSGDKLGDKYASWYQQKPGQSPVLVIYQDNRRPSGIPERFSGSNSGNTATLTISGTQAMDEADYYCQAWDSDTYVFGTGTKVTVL .
result: 0.0002 s⁻¹
